- Experiment Description: in vitro
- Experimental Setup: female, Sprague Dawley, rat, plasma

Compound	metabolised at 12 h
CC(=O)N[C@H]1C(O)O[C@H](CO)[C@@H](O)[C@@H]1O[C@H](C)C(=O)N[C@@H](C)C(=O)N[C@H](CCC(=O)O)C(N)=O (stereo partly shown) [MDP, muramyl dipeptide]	~60%

Where do the numbers come from? From paper PMC6160049.
